Cited source for all entries: patent US20110172422A1

# TEST_METHOD_NOTES: Non-specific binding
# Type: in vitro ADME
PROPERTY: Non-Spec Binding (%)

Illustrative cases are given below, each with its answer.
STRUCTURE_SMILES | PROPERTY | RESULT_VALUE
CCCc1nc(C)c2c(=O)[nH]c(-c3cc(S(=O)(=O)N(C)[C@H](C)C(=O)N(C)C)ccc3OCC)nn12 | Non-Spec Binding | 20.7
CCCc1nc(C)c2c(=O)[nH]c(-c3cc(S(=O)(=O)N(C)CC(=O)N(CC)CC)ccc3OCC)nn12 | Non-Spec Binding | 19
CCCc1nc(C)c2c(=O)[nH]c(-c3cc(S(=O)(=O)N(C)CC(=O)N(C)CCN(C)C)ccc3OCC)nn12 | Non-Spec Binding | 9.8

a. CCCc1nc(C)c2c(=O)[nH]c(-c3cc(S(=O)(=O)N(C)[C@@H](C)C(=O)N(C)C)ccc3OCC)nn12
b. CCCc1nc(C)c2c(=O)[nH]c(-c3cc(S(=O)(=O)N(C)CC(=O)N(C)CC(=O)N(C)C)ccc3OCC)nn12
c. CCCc1nc(C)c2c(=O)[nH]c(-c3cc(S(=O)(=O)N(C)CC(=O)N4CCN(C)CC4)ccc3OCC)nn12
d. CCCc1nc(C)c2c(=O)[nH]c(-c3cc(S(=O)(=O)N(C)C(C)(C)C(=O)N(C)C)ccc3OCC)nn12
Query block: Task field, ranking: reported Non-Spec Binding, descending order. Form field (ranking): labels in requested order.
Result block: a, d, b, c
(a: 30.7%, d: 14.3%, b: 7%, c: 2.6%)
